assay: xn = mol fraction of the nth substance listed, in the solute-free solvent
measurementSetup: 318.15 K; x2 = 0.1
Listing: solubility (g/100 g solution) of selected compounds
# respond with the number and nothing more

Reference set (3 entries):
1) CCCCN1CCCCC1C(=O)Nc1c(C)cccc1C.Cl.O (centres undefined) + CO + O    9.76
2) CC1(C)SC2C(NC(=O)C(NC(=O)N3CCNC3=O)c3ccccc3)C(=O)N2C1C(=O)O (centres undefined) + CO + CC(C)O    0.411
3) CCCCN1CCCCC1C(=O)Nc1c(C)cccc1C.Cl.O (centres undefined) + CCO + O    7.35

Using the record for O=c1ccc2ccccc2o1 + CO + O , report its solubility (g/100 g solution).
1.41
